Numbers sourced from the supplement of paper PMC10307832.

Would you mind telling me the reported relative viability of each entry?
- Tested on: NCI-H1755
- test-summary: relative viability (nuclei count vs DMSO), 5 days (fraction); higher = more cells survive
- protocol-conditions: first compound 4 µM
One number for each entry.

- compound: "C[C@@H]1CN(CC(=O)Nc2ccc3c(c2)Cc2cccc(-c4cc(=O)cc(N5CCOCC5)o4)c2S3)C[C@H](C)O1 + COc1cc2c(Oc3ccc(NC(=O)C4(C(=O)Nc5ccc(F)cc5)CC4)cc3F)ccnc2cc1OCCCN1CCOCC1 [Foretinib] (partner 0.25 µM)"
  relative viability: 0.798

Reported relative viability for COc1cc(N2CCC(C(N)=O)CC2)ccc1Nc1nc(N)c(Cl)c(Nc2ccccc2S(=O)(=O)C(C)C)n1 [HG-5-88-01] + C[C@@H](Oc1cc(-c2cnn(C3CCNCC3)c2)cnc1N)c1c(Cl)ccc(F)c1Cl [Crizotinib] (partner 1 µM) was 0.933
